Test: Plasma pharmacokinetics in patients
Type: in vivo, human
Settings: human, plasma, intravenous, t1/2,z, DL1, C1D11, onalespib 40 mg/m^2 with AT7519 21 mg/m^2, n = 2, geometric mean
metric: half-life (h)

1. CC(C)c1cc(C(=O)N2Cc3ccc(CN4CCN(C)CC4)cc3C2)c(O)cc1O [onalespib]; 9.4

---

Experiment: Plasma pharmacokinetics in patients
Type: in vivo, human
Details: human, plasma, iv, 80 mg/m2, t1/2,z, DL2, C0D1, onalespib 80 mg/m^2 IV alone, n = 17, geometric mean
metric: half-life (h)

1. CC(C)c1cc(C(=O)N2Cc3ccc(CN4CCN(C)CC4)cc3C2)c(O)cc1O; 10.4

---

Test: Plasma pharmacokinetics in patients
Type: in vivo, human
Settings: human, plasma, iv, 80 mg/m2, Cmax, DL2, C0D1, onalespib 80 mg/m^2 IV alone, n = 17, geometric mean
metric: Cmax (ng/mL)

1) CC(C)c1cc(C(=O)N2Cc3ccc(CN4CCN(C)CC4)cc3C2)c(O)cc1O; 349

---

Assay: Plasma pharmacokinetics in patients
Type: in vivo, human
Conditions: human, plasma, intravenous, Cmax, DL1, C1D1, onalespib 40 mg/m^2 with AT7519 21 mg/m^2, n = 4, geometric mean
metric: Cmax (ng/mL)

1. CC(C)c1cc(C(=O)N2Cc3ccc(CN4CCN(C)CC4)cc3C2)c(O)cc1O [onalespib]; 146

---

Assay: Plasma pharmacokinetics in patients
Assay type: in vivo, human
Conditions: human, plasma, iv, 80 mg/m2, AUC, DL2, C0D1, onalespib 80 mg/m^2 IV alone, n = 17, geometric mean
metric: AUC (ng·h/mL)

1. CC(C)c1cc(C(=O)N2Cc3ccc(CN4CCN(C)CC4)cc3C2)c(O)cc1O [onalespib]; 1490

---

Test: Plasma pharmacokinetics in patients
Assay type: in vivo, human
Conditions: human, plasma, iv, Cmax, DL2, C1D11, AT7519 21 mg/m^2 IV after onalespib 80 mg/m^2, n = 11, geometric mean
metric: Cmax (ng/mL)

1) O=C(NC1CCNCC1)c1n[nH]cc1NC(=O)c1c(Cl)cccc1Cl; 509

---

Experiment: Plasma pharmacokinetics in patients
Assay type: in vivo, human
Details: human, plasma, iv, AUC, DL1, C1D11, AT7519 21 mg/m^2 IV after onalespib 40 mg/m^2, n = 2, geometric mean
metric: AUC (ng·h/mL)

1. O=C(NC1CCNCC1)c1n[nH]cc1NC(=O)c1c(Cl)cccc1Cl; 2100

---

Experiment: Plasma pharmacokinetics in patients
Assay type: in vivo, human
Settings: human, plasma, iv, 80 mg/m2, AUC, DL3, C0D1, onalespib 80 mg/m^2 IV alone, n = 5, geometric mean
metric: AUC (ng·h/mL)

1) CC(C)c1cc(C(=O)N2Cc3ccc(CN4CCN(C)CC4)cc3C2)c(O)cc1O; 1680

---

Assay: Plasma pharmacokinetics in patients
Type: in vivo, human
Conditions: human, plasma, intravenous, AUC, DL1, C1D11, onalespib 40 mg/m^2 with AT7519 21 mg/m^2, n = 2, geometric mean
metric: AUC (ng·h/mL)

1) CC(C)c1cc(C(=O)N2Cc3ccc(CN4CCN(C)CC4)cc3C2)c(O)cc1O; 610

---

Assay: Plasma pharmacokinetics in patients
Assay type: in vivo, human
Conditions: human, plasma, intravenous, AUC, DL2, C1D1, onalespib 80 mg/m^2 with AT7519 21 mg/m^2, n = 16, geometric mean
metric: AUC

1. CC(C)c1cc(C(=O)N2Cc3ccc(CN4CCN(C)CC4)cc3C2)c(O)cc1O; 1390 ng·h/mL

---

Experiment: Plasma pharmacokinetics in patients
Type: in vivo, human
Details: human, plasma, iv, 80 mg/m2, t1/2,z, DL3, C0D1, onalespib 80 mg/m^2 IV alone, n = 5, geometric mean
metric: half-life (h)

1) CC(C)c1cc(C(=O)N2Cc3ccc(CN4CCN(C)CC4)cc3C2)c(O)cc1O [onalespib]; 9

---

Experiment: Plasma pharmacokinetics in patients
Format: in vivo, human
Settings: human, plasma, intravenous, AUC, DL3, C1D11, onalespib 80 mg/m^2 with AT7519 27 mg/m^2, n = 3, geometric mean
metric: AUC

1) CC(C)c1cc(C(=O)N2Cc3ccc(CN4CCN(C)CC4)cc3C2)c(O)cc1O [onalespib]; 1510 ng·h/mL

---

Assay: Plasma pharmacokinetics in patients
Type: in vivo, human
Conditions: human, plasma, iv, t1/2,z, DL3, C1D1, AT7519 27 mg/m^2 IV after onalespib 80 mg/m^2, n = 4, geometric mean
metric: half-life (h)

1. O=C(NC1CCNCC1)c1n[nH]cc1NC(=O)c1c(Cl)cccc1Cl; 9.21

---

Experiment: Plasma pharmacokinetics in patients
Format: in vivo, human
Conditions: human, plasma, iv, Cmax, DL1, C1D11, AT7519 21 mg/m^2 IV after onalespib 40 mg/m^2, n = 2, geometric mean
metric: Cmax (ng/mL)

1) O=C(NC1CCNCC1)c1n[nH]cc1NC(=O)c1c(Cl)cccc1Cl; 486

---

Assay: Plasma pharmacokinetics in patients
Type: in vivo, human
Details: human, plasma, iv, t1/2,z, DL1, C1D1, AT7519 21 mg/m^2 IV after onalespib 40 mg/m^2, n = 4, geometric mean
metric: half-life (h)

1. O=C(NC1CCNCC1)c1n[nH]cc1NC(=O)c1c(Cl)cccc1Cl [AT7519]; 7.48

---

Experiment: Plasma pharmacokinetics in patients
Assay type: in vivo, human
Details: human, plasma, intravenous, t1/2,z, DL3, C1D1, onalespib 80 mg/m^2 with AT7519 27 mg/m^2, n = 4, geometric mean
metric: half-life (h)

1) CC(C)c1cc(C(=O)N2Cc3ccc(CN4CCN(C)CC4)cc3C2)c(O)cc1O; 7.4

---

Experiment: Plasma pharmacokinetics in patients
Assay type: in vivo, human
Conditions: human, plasma, intravenous, Cmax, DL3, C1D11, onalespib 80 mg/m^2 with AT7519 27 mg/m^2, n = 3, geometric mean
metric: Cmax (ng/mL)

1) CC(C)c1cc(C(=O)N2Cc3ccc(CN4CCN(C)CC4)cc3C2)c(O)cc1O; 424

---

Assay: Plasma pharmacokinetics in patients
Type: in vivo, human
Settings: human, plasma, iv, AUC, DL1, C1D1, AT7519 21 mg/m^2 IV after onalespib 40 mg/m^2, n = 4, geometric mean
metric: AUC

1. O=C(NC1CCNCC1)c1n[nH]cc1NC(=O)c1c(Cl)cccc1Cl; 1540 ng·h/mL
